Attribution: PubChem BioAssay (NCI)

Assay: NCI Yeast Anticancer Drug Screen. Data for the wt2 strain (AID 169);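 also: 0% = growth of vehicle-treated yeast cultures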
Settings: S. cerevisiae wt2 strain growth inhibition; at 100.0 µM; hits give high values
This is part of a sample that, as a whole, favours compounds with a hit. Of some 79,000 tested, about 15% had one in any assay. Active and inactive are the calls of the source. Rule as the data show it: active = growth inhibition above about 70%; inactive = the rest.
Each entry below lists one item and its recorded growth inhibition value.
Readout Label: growth inhibition

[[record]]
molecule = "O=C(/C=C\\c1ccc(Cl)cc1Cl)c1cccs1"
value_measured = "7% (inactive)"

[[record]]
molecule = "O=C1Nc2ccccc2/C1=C/COc1ccccc1"
value_measured = "99% (active)"

[[record]]
molecule = "N#CSc1ccc(S(N)(=O)=O)cc1"
value_measured = "50% (inactive)"

[[record]]
molecule = "S=c1[nH]nc(Nc2ccc(Cl)cc2)s1"
value_measured = "98% (active)"

[[record]]
molecule = "[N-]=N[N+]#I1OC(C(F)(F)F)(C(F)(F)F)c2ccccc21"
value_measured = "99% (active)"

[[record]]
molecule = "CCCC/C=C/C(CC)(C(=O)OCC)C(=O)OCC"
value_measured = "-5% (inactive)"

[[record]]
molecule = "O=C(O)c1ccccc1-c1ccccc1C(=O)Nc1ccc2c(c1)Cc1ccccc1-2"
value_measured = "96% (active)"

[[record]]
molecule = "COc1cc(C2c3cc4c(cc3OC(Nc3ccccc3)C2C)OCO4)cc(OC)c1O (centres undefined)"
value_measured = "68% (inactive)"

[[record]]
molecule = "CCCCCCc1cc(C(=O)OC/C(C)=N/NC(N)=O)c2ccccc2n1"
value_measured = "-4% (inactive)"

[[record]]
molecule = "BrCC[P+](c1ccccc1)(c1ccccc1)c1ccccc1"
value_measured = "95% (active)"

[[record]]
molecule = "O=Cc1cccc2ccc3ccccc3c12"
value_measured = "80% (active)"

[[record]]
molecule = "O=[N+]([O-])/C=C/c1ccc2ccccc2c1"
value_measured = "99% (active)"

[[record]]
molecule = "Cn1ccnc1Oc1ccc(Cl)cc1"
value_measured = "99% (active)"

[[record]]
molecule = "CN(CCc1ccccn1)c1ccc2c(c1)Cc1ccccc1-2"
value_measured = "26% (inactive)"

[[record]]
molecule = "C#CCCCc1ccccc1"
value_measured = "14% (inactive)"

[[record]]
molecule = "CCN(CC)C(C)(C)C(=O)/C=C/c1ccccc1"
value_measured = "6% (inactive)"

[[record]]
molecule = "CCN(CC)CCNc1ccc([N+](=O)[O-])c2nc3ccc(OC)cc3c(N)c12"
value_measured = "70% (active)"

[[record]]
molecule = "Cc1ccc(NC(=O)/C(Cl)=C(\\Cl)C(=O)O)cc1C"
value_measured = "99% (active)"

[[record]]
molecule = "CC(=O)Nc1ccc(SC(C)=O)cc1"
value_measured = "88% (active)"

[[record]]
molecule = "Cc1[nH]c2ccccc2c1C(c1ccc(N)cc1)c1c(C)[nH]c2ccccc12"
value_measured = "47% (inactive)"

[[record]]
molecule = "Cc1ccc(-c2ccc(Nc3c4ccccc4nc4ccccc34)cc2)cn1"
value_measured = "39% (inactive)"

[[record]]
molecule = "CC1CCN(CCC(=O)c2ccc(Cl)cc2)CC1"
value_measured = "21% (inactive)"

[[record]]
molecule = "Cn1c2ccccc2c(=O)c2cc(NC(=O)CCCCC(=O)Nc3ccc4c(c3)c(=O)c3ccccc3n4C)ccc21"
value_measured = "40% (inactive)"

[[record]]
molecule = "Cc1cccc2c(C(O)CBr)cc(-c3ccc(Cl)cc3)nc12 (centres undefined)"
value_measured = "88% (active)"

[[record]]
molecule = "CCC(C(=O)O)C1=C(c2ccccc2)CCc2ccccc21 (centres undefined)"
value_measured = "99% (active)"

[[record]]
molecule = "COc1cc2ccc(/C=C\\[N+](=O)[O-])cc2cc1OC"
value_measured = "97% (active)"

[[record]]
molecule = "OC(COc1cccc2ccccc12)CN1CCOCC1 (centres undefined)"
value_measured = "35% (inactive)"

[[record]]
molecule = "O=C1NC(=O)C2C3C=CC(C3)C12 (centres undefined)"
value_measured = "98% (active)"

[[record]]
molecule = "Cc1cc(S(=O)(=O)/N=C(/NN)NNc2cccc(C(F)(F)F)n2)c(S)cc1Cl"
value_measured = "18% (inactive)"

[[record]]
molecule = "S=C(Nc1ccc(Cl)c(Cl)c1)SCc1ccc2c(c1)OCO2"
value_measured = "97% (active)"

[[record]]
molecule = "COC(=O)c1ccc(CCC2=CC(=O)C(Br)=CC2=O)cc1"
value_measured = "98% (active)"

[[record]]
molecule = "C[C@H](CCC(=O)NN)[C@H]1CC[C@H]2[C@@H]3CC[C@@H]4C[C@H](O)CC[C@]4(C)[C@H]3CC[C@]12C"
value_measured = "2% (inactive)"

[[record]]
molecule = "O=[N+]([O-])c1ccc2c(c1)C(N1CCN(CCO)CC1)Cc1ccc(F)cc1S2 (centres undefined)"
value_measured = "36% (inactive)"

[[record]]
molecule = "O=C(/C=C/c1cccc(Br)c1)c1cccs1"
value_measured = "95% (active)"

[[record]]
molecule = "S=C(S)NN1CCOCC1"
value_measured = "31% (inactive)"

[[record]]
molecule = "CC/C(=C(\\c1ccccc1)c1ccc(OCCN(C)C)cc1)c1ccccc1"
value_measured = "97% (active)"

[[record]]
molecule = "NC(N)=N/N=C\\c1c2ccccc2cc2ccccc12"
value_measured = "96% (active)"

[[record]]
molecule = "O=C1C2CC[C@@H]3C(=O)C(Cl)(Cl)[C@@H]3CCC2C1(Cl)Cl (some centres undefined)"
value_measured = "14% (inactive)"

[[record]]
molecule = "COc1cccc2nc3ccccc3nc12"
value_measured = "96% (active)"

[[record]]
molecule = "O=C(Nc1ccccc1)C(=O)C(C(=O)c1ccccc1)C(c1ccccc1)c1ccccc1 (centres undefined)"
value_measured = "43% (inactive)"

[[record]]
molecule = "Cc1cc(I)ccc1N"
value_measured = "94% (active)"

[[record]]
molecule = "CN(C)CCn1c2c3ccccc3ccc2c2oc(=O)c3ccccc3c21"
value_measured = "95% (active)"

[[record]]
molecule = "N#CN1C2CCC1CC(=O)C2"
value_measured = "-25% (inactive)"

[[record]]
molecule = "COc1ccc(Br)c(C(=O)Sc2nnnn2-c2cccc(Cl)c2)c1"
value_measured = "93% (active)"

[[record]]
molecule = "CC(CC(C)(C)[N+](C)(C)C)[N+](C)(C)C (centres undefined)"
value_measured = "-1% (inactive)"

[[record]]
molecule = "Cc1cc(CO)c(O)c(CNCc2cc(C)cc(CO)c2O)c1"
value_measured = "98% (active)"

[[record]]
molecule = "COc1ccccc1C(=O)OCC1CCCN2CCCCC12 (centres undefined)"
value_measured = "98% (active)"

[[record]]
molecule = "CC(=O)Oc1ccc2c(c1)Cc1cc(N=C3C=CC(=O)O3)ccc1-2"
value_measured = "96% (active)"

[[record]]
molecule = "c1ccc2c(c1)C(=NCCCN1CCCCCC1)c1cccn1-2"
value_measured = "96% (active)"

